System: EKVX NSCLC
Assay: NCI tumour cell line growth inhibition, 48 h
Assign TGI to each entry below.

input: Query (compound): "CCOC(=O)c1cccc(N=NNc2cccc(C(=O)OCC)c2)c1" ; field requested: TGI
output: > 100 µM

input: Query (compound): "Cc1[nH]c2c(C)c3c([nH]c4ccc(Cl)cc43)c(C)c2c(=O)c1C" ; field requested: TGI
output: > 100 µM

input: Query (compound): "C/C(=C\COP(=O)(O)OP(=O)(O)O)CC/C=C(\C)CNc1c(F)c(F)c(F)c(F)c1F" ; field requested: TGI
output: > 100 µM

====

Assign TGI to each entry below.
Test system: UO-31 renal
Assay: NCI tumour cell line growth inhibition, 48 h

input: Query (compound): "CSc1ccc(-c2cn3ccsc3n2)cc1" ; field requested: TGI
output: > 100 µM

input: Query (compound): "O=C1OC(c2ccccc2)=N/C1=C\c1ccccc1" ; field requested: TGI
output: > 100 µM

input: Query (compound): "CCCCCCCCCC(=O)Oc1ccc(/C(=C(/C)c2ccccc2)c2ccc(OCCN3CCCC3)cc2)cc1" ; field requested: TGI
output: 14.2 µM

input: Query (compound): "CCn1c(=O)nc2n(-c3ccc(SC)cc3)c3ccccc3nc-2c1=O" ; field requested: TGI
output: > 100 µM

input: Query (compound): CN(C(=O)C12C3C4C1C1C2C3C41C#N)C(C)(C)C (stereo not drawn) ; field requested: TGI
output: > 100 µM

input: Query (compound): "CCN(CC)C(=O)Cc1[nH][nH]c(=O)c1C(=O)N(CC)CC" ; field requested: TGI
output: > 100 µM

input: Query (compound): N/N=C1/C(=O)N(c2ccc(Cl)cc2)C(=O)C(=O)C1c1nc2ccccc2s1 (stereo not drawn) ; field requested: TGI
output: > 100 µM

input: Query (compound): "COc1cc(OC)c(/C=C/S(=O)(=O)Cc2ccc(OC)c(N)n2)c(OC)c1" ; field requested: TGI
output: > 100 µM

input: Query (compound): "Cc1cccc(NC(=S)NNC(=O)c2cc(-c3ccccc3)nc3ccccc23)c1" ; field requested: TGI
output: 57.1 µM

input: Query (compound): "O=C1c2ccc3c4c(ccc(c24)C(=O)N1CCCCO)C(=O)N(CCCCO)C3=O" ; field requested: TGI
output: 7.65 µM

input: Query (compound): "NS(=O)(=O)c1ccc(Nc2c3ccccc3nc3c(C(=O)NC(CO)(CO)CO)cccc23)cc1" ; field requested: TGI
output: 0.366 µM

input: Query (compound): "Cc1n[nH]c(=O)c2c3c([nH]c12)-c1ccccc1C3" ; field requested: TGI
output: > 100 µM

input: Query (compound): CCCOC(=O)CCC(NC(=O)c1ccc(Nc2nc3ccccc3nc2-c2cccs2)cc1)C(=O)OCCC (stereo not drawn) ; field requested: TGI
output: > 100 µM

input: Query (compound): "O=C(O)CN(CCN(CC(=O)O)CC(=O)O)CC(=O)O.[Cu+2].[Na+]" ; field requested: TGI
output: > 100 µM

input: Query (compound): O=C(NCC(O)COc1ccccc1)c1ccccc1O (stereo not drawn) ; field requested: TGI
output: > 100 µM

input: Query (compound): "O=c1[nH]nc(-c2cccc([N+](=O)[O-])c2)[nH]1" ; field requested: TGI
output: > 100 µM

input: Query (compound): "O=C1C=C2SC3C[C@@]24CC1(O)[N+]1=c2c4c(c(O)c4c2=C(C=N4)CC1)N3" ; field requested: TGI
output: 3.48 µM

input: Query (compound): "N#Cc1sc2nc3c(c(-c4ccccc4)c2c1N)CCCC3" ; field requested: TGI
output: > 100 µM

input: Query (compound): "O=C(O)c1ccccc1Sc1ccc(C=C2NC(=S)N(c3ccccc3)C2=O)s1" ; field requested: TGI
output: > 100 µM

input: Query (compound): NP1(Oc2ccc(F)cc2)=NP(N)(Oc2ccc(F)cc2)=NP(Oc2ccc(F)cc2)(Oc2ccc(F)cc2)=N1 (stereo not drawn) ; field requested: TGI
output: 14.2 µM

input: Query (compound): "CC1=Nc2ccccc2S/C1=C1/C=NC(=NC#N)N=C1C(=O)Nc1cccc(Cl)c1" ; field requested: TGI
output: > 100 µM

input: Query (compound): "CN(N=O)c1ccc(/C=C/c2ccnc3ccccc23)cc1" ; field requested: TGI
output: > 100 µM

input: Query (compound): "CCOc1c2c(cc3c1C(=O)c1c(OC)cccc1C3=O)C=C(OC)CC2" ; field requested: TGI
output: > 25 µM

input: Query (compound): CCC(C)C(NC(=O)c1cccc2c(=O)c3ccccc3[nH]c12)C(=O)O (stereo not drawn) ; field requested: TGI
output: > 100 µM

input: Query (compound): "CO[C@H]1C[C@H](O[C@H]2CC[C@@]3(C)[C@H](CC[C@@H]4[C@@H]3CC[C@]3(C)[C@@H](C5=CC(=O)OC5)CC[C@]43O)C2)O[C@H](C)[C@H]1O" ; field requested: TGI
output: 0.0217 µM

input: Query (compound): "Nc1nc(SCC#CCCl)c2[nH]cnc2n1" ; field requested: TGI
output: 11.5 µM

input: Query (compound): "C=CCN(C(C)=O)c1cc(OCc2ccccc2)c2c(c1)c(C)cn2S(=O)(=O)c1ccccc1" ; field requested: TGI
output: > 100 µM

input: Query (compound): COc1cc(O)c(C(=O)C2Cc3ccccc32)c(OC)c1 (stereo not drawn) ; field requested: TGI
output: > 100 µM

input: Query (compound): COc1cc(F)c(F)c(Nc2ccc(I)cc2F)c1NS(=O)(=O)C1(CC(O)CO)CC1 (stereo not drawn) ; field requested: TGI
output: 40.2 µM

input: Query (compound): "COc1ccc(/C=N/n2c(-c3ccccc3)n[nH]c2=O)c(OC)c1" ; field requested: TGI
output: > 70 µM

input: Query (compound): "N#Cc1ccc2c(-c3ccnc(NC4CC4)n3)c(-c3ccc(F)cc3)nn2c1" ; field requested: TGI
output: > 25 µM

input: Query (compound): "CCn1c(=O)c2nc(SC)sc2n(-c2ccccc2)c1=S" ; field requested: TGI
output: 35.4 µM

input: Query (compound): "COC(=O)c1sc(-n2cnc3cc(OC)c(OC)cc32)cc1OCc1ccccc1C(F)(F)F" ; field requested: TGI
output: > 25 µM

====

Assign TGI to each entry below.
Tested on: HOP-92 NSCLC
Assay: NCI tumour cell line growth inhibition, 48 h
Your answer should be a plain number; it is taken to be in µM.

input: Query (compound): "Clc1ccc(Cc2nc3cc4ccccc4cc3[nH]2)cc1Cl" ; field requested: TGI
output: 30.6

input: Query (compound): COC1=CC(=O)C2(C=C1OC)OC[C@H]1Oc3c(ccc4c3C=CC(C)(C)O4)C(=O)[C@H]12 (stereo not given in full) ; field requested: TGI
output: 44.3

input: Query (compound): "O=C(NCCN1CCOCC1)c1cc2c(Oc3ccc(NC(=O)C4(C(=O)Nc5ccc(F)cc5)CC4)cc3)ccnc2[nH]1" ; field requested: TGI
output: 16.5

input: Query (compound): "CN1CCN(Cc2ccc(NC(=O)c3cncc(C#Cc4c(N)ncc5ccccc45)c3)cc2C(F)(F)F)CC1" ; field requested: TGI
output: 0.836

====

System: OVCAR-8 ovarian
Experiment: NCI tumour cell line growth inhibition, 48 h
Assign TGI to each entry below.

input: Query (compound): "Cc1cccc(NC(=S)NNC(=O)c2cc(-c3ccccc3)nc3ccccc23)c1" ; field requested: TGI
output: > 100 µM

input: Query (compound): "CCOc1c2c(cc3c1C(=O)c1c(OC)cccc1C3=O)C=C(OC)CC2" ; field requested: TGI
output: > 25 µM

input: Query (compound): "COc1cc(OC)c(/C=C/S(=O)(=O)Cc2ccc(OC)c(N)n2)c(OC)c1" ; field requested: TGI
output: > 100 µM

====

Test system: UACC-62 melanoma
Experiment: NCI tumour cell line growth inhibition, 48 h
Assign TGI to each entry below.

input: Query (molecule): CCOC(=O)C(Oc1ccc(OC)c2c1C(=O)CCC2)c1ccccc1 (stereo unspecified) ; field requested: TGI
output: > 100 µM

input: Query (molecule): "NS(=O)(=O)c1ccc(Nc2c3ccccc3nc3c(C(=O)NC(CO)(CO)CO)cccc23)cc1" ; field requested: TGI
output: 0.318 µM

input: Query (molecule): "Cc1cc2nc3c(N)nn(CCCN(C)C)c3nc2cc1C" ; field requested: TGI
output: > 100 µM

input: Query (molecule): "COC(=O)c1sc(-n2cnc3cc(OC)c(OC)cc32)cc1OCc1ccccc1C(F)(F)F" ; field requested: TGI
output: > 25 µM

input: Query (molecule): "N#C/C(=C/c1ccc([N+](=O)[O-])o1)c1ccccc1" ; field requested: TGI
output: > 100 µM

input: Query (molecule): COc1cc([C@H]2OC[C@@H]3C(c4cc(OC)c5c(c4)OCO5)OC[C@H]23)cc(OC)c1OC (stereo partly specified) ; field requested: TGI
output: > 100 µM

input: Query (molecule): COc1cccc(C2c3cc4c(cc3OC(NNS(=O)(=O)c3ccc(C)cc3)C2C)OCO4)c1O (stereo unspecified) ; field requested: TGI
output: 79.7 µM

input: Query (molecule): "COC(OC)c1cccc2c1C(=O)CCC1(CC2)OCCCCO1" ; field requested: TGI
output: > 100 µM

input: Query (molecule): COc1ccc(N2C(=O)[C@@H]3[C@@H]4CC(C)CC[C@@H]4c4c([nH]c5ccccc45)[C@@H]3C2=O)cc1 (stereo partly specified) ; field requested: TGI
output: 40.8 µM

input: Query (molecule): CC(=O)O[C@H]1CSC[C@@H](OC(C)=O)C1[N+](=O)[O-] (stereo partly specified) ; field requested: TGI
output: > 100 µM

input: Query (molecule): "CSc1ccc(-c2cn3ccsc3n2)cc1" ; field requested: TGI
output: > 100 µM
